ASSAYED TARGET: CYP1A2 (Homo sapiens, UniProt P05177)
Sequence (P05177 whole entry): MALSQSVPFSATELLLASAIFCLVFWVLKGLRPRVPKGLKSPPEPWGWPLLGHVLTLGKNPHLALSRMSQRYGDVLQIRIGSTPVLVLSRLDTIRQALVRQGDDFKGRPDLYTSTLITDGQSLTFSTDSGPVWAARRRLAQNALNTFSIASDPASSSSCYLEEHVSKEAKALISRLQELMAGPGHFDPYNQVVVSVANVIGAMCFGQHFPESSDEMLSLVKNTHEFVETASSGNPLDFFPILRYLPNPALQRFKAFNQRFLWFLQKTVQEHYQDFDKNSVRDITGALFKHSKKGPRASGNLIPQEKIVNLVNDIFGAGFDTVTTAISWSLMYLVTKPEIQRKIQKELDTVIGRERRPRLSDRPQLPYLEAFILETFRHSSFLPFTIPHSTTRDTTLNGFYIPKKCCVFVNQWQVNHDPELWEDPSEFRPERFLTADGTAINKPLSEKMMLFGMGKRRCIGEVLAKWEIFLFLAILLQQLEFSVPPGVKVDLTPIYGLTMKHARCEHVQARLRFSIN
TEST PROTOCOL: in vitro
ASSAY SETUP: microsomes, pH 7.4
ASSAY READOUT: activity at 3.33 µM (%)
Just the number please, in %, no unit attached.

Notebook: pull reported activity at 3.33 µM for CYP1A2 (Homo sapiens, UniProt P05177), entry O=C(O)c1cc(-c2ccc(/C=C3\SC(=S)N(CCc4ccccc4)C3=O)o2)ccc1Cl 69.5

----------
ASSAYED TARGET: CYP1A2 (Homo sapiens, UniProt P05177)
ASSAY READOUT: IC50 (µM)
Just the number please, in µM, no unit attached.

So what does the record say about IC50 for O=C(O)c1cc(-c2ccc(/C=C3\SC(=S)N(CCc4ccccc4)C3=O)o2)ccc1Cl ? 7.4
